target_or_system: UniProtKB P28335
Sequence (P28335 whole entry): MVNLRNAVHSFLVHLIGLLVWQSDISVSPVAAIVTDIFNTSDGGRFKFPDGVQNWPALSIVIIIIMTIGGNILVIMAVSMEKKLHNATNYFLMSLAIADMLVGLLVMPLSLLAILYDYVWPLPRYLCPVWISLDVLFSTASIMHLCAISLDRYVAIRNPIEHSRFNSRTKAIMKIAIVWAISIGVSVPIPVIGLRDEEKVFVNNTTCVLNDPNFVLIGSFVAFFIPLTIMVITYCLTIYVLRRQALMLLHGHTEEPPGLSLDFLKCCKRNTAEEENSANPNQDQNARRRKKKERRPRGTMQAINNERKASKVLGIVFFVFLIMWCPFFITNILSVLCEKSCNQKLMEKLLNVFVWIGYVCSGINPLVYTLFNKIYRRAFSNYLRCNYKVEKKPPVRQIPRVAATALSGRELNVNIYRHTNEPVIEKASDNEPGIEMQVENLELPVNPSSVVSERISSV
Below is a list of entries, each paired with its recorded AC50 value.
quantity_kind: AC50

molecule | target_or_system | quantity_kind | observed_value
C#C[C@]1(O)CC[C@H]2[C@@H]3CCC4=CC(=O)CC[C@@H]4[C@H]3C(=C)C[C@@]21CC | UniProtKB P28335 | AC50 | > 10 µM
O=C(O)CCNC(=O)c1ccccc1 | UniProtKB P28335 | AC50 | > 30 µM
COc1ccc2nc3cc(Cl)ccc3c(Nc3cc(CN4CCCC4)c(O)c(CN4CCCC4)c3)c2n1 | UniProtKB P28335 | AC50 | > 30 µM
CC(C)COCC(CN(Cc1ccccc1)c1ccccc1)N1CCCC1 (configuration not stated) | UniProtKB P28335 | AC50 | > 30 µM
CCCN(CCC)C(=O)Cc1c(-c2ccc(Cl)cc2)nc2ccc(Cl)cn12 | UniProtKB P28335 | AC50 | > 30 µM
Oc1ccc2c(c1)CC[C@H](c1ccccc1)[C@@H]2c1ccc(OCCN2CCCC2)cc1 | UniProtKB P28335 | AC50 | 5.3 µM
C[C@]12C=CC(=O)N[C@@H]1CC[C@@H]1[C@@H]2CC[C@]2(C)[C@@H](C(=O)Nc3cc(C(F)(F)F)ccc3C(F)(F)F)CC[C@@H]12 [DUTASTERIDE] | UniProtKB P28335 | AC50 | > 30 µM
C=C[C@H]1C[N@@]2CC[C@H]1C[C@@H]2[C@@H](O)c1ccnc2ccc(OC)cc12 | UniProtKB P28335 | AC50 | > 10 µM
CCOC(=O)C1=C[C@]2(CC)CCCN3CCc4c(n1c1ccccc41)[C@@H]32 | UniProtKB P28335 | AC50 | > 30 µM
Cc1cc(C(C)(C)C)cc(C)c1CC1=NCCN1 | UniProtKB P28335 | AC50 | 10 µM
CC(C)Cc1ccc(C(C)C(=O)O)cc1 (configuration not stated) | UniProtKB P28335 | AC50 | > 30 µM
CCC[C@H](NC(=O)[C@@H]1[C@H]2CCC[C@H]2CN1C(=O)[C@@H](NC(=O)[C@@H](NC(=O)c1cnccn1)C1CCCCC1)C(C)(C)C)C(=O)C(=O)NC1CC1 | UniProtKB P28335 | AC50 | > 30 µM

Entry source: ChEMBL document CHEMBL5291721
